# tested_on: UniProt Q9NR96
# assay_method_text: TLR9 inhibition reporter assay (HEK-Blue cells, SEAP reporter, ODN2006 stimulation)
# setup_conditions: HEK-Blue cells overexpressing human TLR9, SEAP reporter, ODN2006 5 nM
I'd be grateful if you could share measured pIC50 for these entries.
Answers are plain numbers, as −log10 of the molar value.

Use the examples below as a reference point.
INSERT INTO results (compound, result_value) VALUES
  ('Cc1cc(-c2[nH]nc(-c3cnc(N)cn3)c2C(C)C)cn2ncnc12', 5.17),
  ('CCN1CCC(c2cnc(-c3n[nH]c(-c4cc(OC)c5ncnn5c4)c3C(C)C)cn2)CC1', 5.01),
  ('Cc1cc(-c2[nH]nc(C(=O)N[C@H]3CC[C@@H](NC4CCOC(C)(C)C4)CC3)c2C(C)C)cn2ncnc12 (some centres unmarked)', 5.26),
  ('Cc1cc(-c2[nH]nc(C(=O)N(C)C3CCN(C)C3)c2C(C)C)cn2ncnc12 (centres unmarked)', 6.35),
  ('Cc1cc(-c2[nH]nc(C(=O)NCC3CN(CC4(C)COC4)CCO3)c2C(C)C)cn2ncnc12 (centres unmarked)', 5.17);

Give its pIC50 value. Item: Cc1cc(-c2[nH]nc(C(=O)N[C@H]3CCCN(C(C)C)C3)c2C(C)C)cn2ncnc12
5.03

---

# tested_on: human TLR8 (Homo sapiens, UniProt Q9NR97)
# Sequence (Q9NR97 27-1041): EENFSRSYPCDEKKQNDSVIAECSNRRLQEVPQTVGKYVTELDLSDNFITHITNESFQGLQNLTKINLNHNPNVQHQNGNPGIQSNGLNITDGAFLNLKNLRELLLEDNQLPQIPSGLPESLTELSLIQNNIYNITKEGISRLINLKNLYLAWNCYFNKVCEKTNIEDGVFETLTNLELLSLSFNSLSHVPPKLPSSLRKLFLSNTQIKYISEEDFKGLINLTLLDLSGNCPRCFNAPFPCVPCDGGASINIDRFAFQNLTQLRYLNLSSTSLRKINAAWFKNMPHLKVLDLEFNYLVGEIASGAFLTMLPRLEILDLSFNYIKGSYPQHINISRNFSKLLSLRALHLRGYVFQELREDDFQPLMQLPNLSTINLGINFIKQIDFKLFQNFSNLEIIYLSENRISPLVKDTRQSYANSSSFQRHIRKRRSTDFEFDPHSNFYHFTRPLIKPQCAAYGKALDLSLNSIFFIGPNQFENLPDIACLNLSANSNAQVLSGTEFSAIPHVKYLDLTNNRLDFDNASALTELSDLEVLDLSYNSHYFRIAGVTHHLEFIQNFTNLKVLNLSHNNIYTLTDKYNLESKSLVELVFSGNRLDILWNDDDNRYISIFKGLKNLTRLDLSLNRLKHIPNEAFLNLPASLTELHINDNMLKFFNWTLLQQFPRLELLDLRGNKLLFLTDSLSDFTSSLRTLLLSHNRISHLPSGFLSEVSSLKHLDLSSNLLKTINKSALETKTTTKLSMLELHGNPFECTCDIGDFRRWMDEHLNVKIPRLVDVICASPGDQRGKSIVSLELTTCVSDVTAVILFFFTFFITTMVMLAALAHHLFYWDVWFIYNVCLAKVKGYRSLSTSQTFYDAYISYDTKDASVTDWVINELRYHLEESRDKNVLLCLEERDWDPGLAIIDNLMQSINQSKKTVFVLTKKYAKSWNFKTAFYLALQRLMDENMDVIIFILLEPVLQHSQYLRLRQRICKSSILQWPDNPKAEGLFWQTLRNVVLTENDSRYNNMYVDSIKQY
# assay_method_text: TLR8 inhibition reporter assay (HEK-Blue cells, SEAP reporter, R848 stimulation)
# setup_conditions: HEK-Blue cells overexpressing human TLR8, SEAP reporter, R848 15.9 μM
I'd be grateful if you could share measured IC50 for these entries.
Give bare numbers, in nM.

Use the examples below as a reference point.
INSERT INTO measurements (query_smiles, tested_on, result_value) VALUES
  ('COc1cc(-c2[nH]nc(C(=O)NCC(C)(C)N3CCOCC3)c2C(C)C)cn2ncnc12', 'human TLR8 (Homo sapiens, UniProt Q9NR97)', 413),
  ('COc1cc(-c2[nH]nc(-c3ccc(C4CCN(CC(N)=O)CC4)cc3)c2C(C)C)cn2ncnc12', 'human TLR8 (Homo sapiens, UniProt Q9NR97)', 4.67),
  ('CCCN1CC(c2ccc(-c3n[nH]c(-c4cc(C)c5ncnn5c4)c3C(C)C)cc2)C1', 'human TLR8 (Homo sapiens, UniProt Q9NR97)', 7.97);

Then this compound:
Give its IC50 value. Item: Cc1cc(-c2[nH]nc(-c3ccc(C4CCNCC4)nc3)c2C(C)C)cn2ncnc12
3.38

---

I'd be grateful if you could share measured pIC50 for these entries.
# tested_on: human TLR9 (Homo sapiens, UniProt Q9NR96)
# Sequence (Q9NR96 26-1032): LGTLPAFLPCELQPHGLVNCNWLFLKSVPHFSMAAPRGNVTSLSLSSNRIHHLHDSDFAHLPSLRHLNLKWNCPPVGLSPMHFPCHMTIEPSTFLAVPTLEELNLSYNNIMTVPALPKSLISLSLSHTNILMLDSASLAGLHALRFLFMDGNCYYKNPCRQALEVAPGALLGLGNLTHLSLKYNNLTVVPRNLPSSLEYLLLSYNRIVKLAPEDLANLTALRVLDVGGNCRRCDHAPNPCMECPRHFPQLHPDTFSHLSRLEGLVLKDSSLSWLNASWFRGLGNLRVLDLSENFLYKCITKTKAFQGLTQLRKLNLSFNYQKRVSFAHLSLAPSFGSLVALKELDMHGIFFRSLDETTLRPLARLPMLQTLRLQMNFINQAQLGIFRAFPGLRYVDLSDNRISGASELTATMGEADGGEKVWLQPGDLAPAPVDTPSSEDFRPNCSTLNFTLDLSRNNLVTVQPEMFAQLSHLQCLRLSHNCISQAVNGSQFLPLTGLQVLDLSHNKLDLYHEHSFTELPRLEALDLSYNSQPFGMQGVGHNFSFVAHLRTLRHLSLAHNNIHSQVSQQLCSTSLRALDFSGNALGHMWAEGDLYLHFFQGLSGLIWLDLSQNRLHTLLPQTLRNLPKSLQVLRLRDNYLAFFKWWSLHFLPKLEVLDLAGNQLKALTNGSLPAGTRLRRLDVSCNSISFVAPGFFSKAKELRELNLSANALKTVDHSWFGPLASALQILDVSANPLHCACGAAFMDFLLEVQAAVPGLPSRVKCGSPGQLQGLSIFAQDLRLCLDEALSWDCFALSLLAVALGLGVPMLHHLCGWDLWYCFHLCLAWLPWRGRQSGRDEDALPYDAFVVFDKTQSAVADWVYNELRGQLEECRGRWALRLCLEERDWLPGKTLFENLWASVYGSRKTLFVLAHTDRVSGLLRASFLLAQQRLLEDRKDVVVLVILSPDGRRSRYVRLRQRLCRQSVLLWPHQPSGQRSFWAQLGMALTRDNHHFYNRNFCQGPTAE
# assay_method_text: TLR9 inhibition reporter assay (HEK-Blue cells, SEAP reporter, ODN2006 stimulation)
# setup_conditions: HEK-Blue cells overexpressing human TLR9, SEAP reporter, ODN2006 5 nM
Answers are plain numbers, as −log10 of the molar value.

INSERT INTO measurements (query_smiles, result_value) VALUES
  ('Cc1cc(-c2[nH]nc(C(=O)NC3CCN(C(C)C)CC3)c2C(C)C)cc(C)n1', 4.60);

Parameter requested: pIC50. Apply to each item below.
1. Cc1cc(-c2[nH]nc(C(=O)NC3CCN(C4COC4)CC3)c2CC(F)(F)F)cn2ncnc12
2. Cc1cc(-c2[nH]nc(C3CCN(CC(=O)N(C)C)CC3)c2C(C)C)cn2ncnc12
3. Cc1cc(-c2[nH]nc(-c3ccc4cnccc4c3)c2C(C)C)cn2ncnc12
4. Cc1cc(-c2[nH]nc(C(=O)N[C@H]3CC[C@@H](N(C)C)CC3)c2C(C)C)cn2ncnc12
5. Cc1cc(-c2[nH]nc(C(=O)NC3CCN(CCC(C)C)CC3)c2C(C)C)cn2ncnc12
6. CCc1c(C(=O)NC2CCN(C)CC2)n[nH]c1-c1cc(C)c2ncnn2c1
7. Cc1cc(-c2[nH]nc(-c3ccc(C4CN(CC(C)(C)O)C4)cc3)c2C(C)C)cn2ncnc12

1. 4.99
2. 5.13
3. 4.99
4. 5.04
5. 5.84
6. 5.25
7. 4.42

Parameter requested: pIC50. Apply to each item below.
1. COc1cc(-c2[nH]nc(-c3ccc(C4CCN(C(C)C)CC4)cn3)c2C(C)C)cn2ncnc12
2. CCN(CCC#N)C(=O)c1n[nH]c(-c2cc(C)c3ncnn3c2)c1C(C)C

1: 4.66; 2: 4.79

# get_value(readout= pIC50, system= human TLR9 (Homo sapiens, UniProt Q9NR96)) for CCCN1CC(c2ccc(-c3n[nH]c(-c4cc(C)c5ncnn5c4)c3C(C)C)cc2)C1
4.75

---

# tested_on: human TLR8 (Homo sapiens, UniProt Q9NR97)
# assay_method_text: TLR8 inhibition reporter assay (HEK-Blue cells, SEAP reporter, R848 stimulation)
# setup_conditions: HEK-Blue cells overexpressing human TLR8, SEAP reporter, R848 15.9 μM
pIC50: −log10 of the molar value.
1.0 means recorded pIC50 is 8 or above; 0.0 means it is below 8.

Illustrative cases are given below, each with its answer.
INSERT INTO assay_data (compound, label_class) VALUES
  ('Cc1cc(-c2[nH]nc(-c3ccc(C4CCN(C5COC5)CC4)cc3)c2C(C)C)cn2ncnc12', 0.0),
  ('COc1cc(-c2[nH]nc(-c3cnc(C4CCN(CCS(C)(=O)=O)CC4)cn3)c2C(C)C)cn2ncnc12', 0.0),
  ('COc1cc(-c2[nH]nc(-c3ccc(C4CCN(CC#N)CC4)cn3)c2C(C)C)cn2ncnc12', 0.0);

Could you please find out whether Cc1cc(-c2[nH]nc(-c3ccc4c(c3)CNCC4)c2C(C)C)cn2ncnc12 has pIC50 that meets 8 or exceeds it?
1.0

Could you please find out whether CNC1CCC(NC(=O)c2n[nH]c(-c3cc(C)c4ncnn4c3)c2C(C)C)CC1 (centres unmarked) [Example 130] has pIC50 that meets 8 or exceeds it?
1.0

Could you please find out whether Cc1cc(-c2[nH]nc(C(=O)N[C@@H]3CCNC3)c2C(C)C)cn2ncnc12 has pIC50 that meets 8 or exceeds it?
1.0

---

# tested_on: human TLR9 (Homo sapiens)
# assay_method_text: TLR9 inhibition reporter assay (HEK-Blue cells, SEAP reporter, ODN2006 stimulation)
# setup_conditions: HEK-Blue cells overexpressing human TLR9, SEAP reporter, ODN2006 5 nM
pIC50: −log10 of the molar value.
satisfied means recorded pIC50 is 5 or above; not satisfied means it is below 5.

Could you please find out whether COc1cc(-c2[nH]nc(-c3cnc(C4CCN(CC5CCC5)CC4)cn3)c2C(C)C)cn2ncnc12 has pIC50 that meets 5 or exceeds it?
not satisfied

Could you please find out whether CCC(C)N1CCC(NC(=O)c2n[nH]c(-c3cc(C)c4ncnn4c3)c2C(C)C)CC1 (stereo not drawn) has pIC50 that meets 5 or exceeds it?
not satisfied
